Tested on: A549
Test: MTT antitumor spectrum, A549
Type: cell-based
Details: Homo sapiens, 72 h
Value Type: pIC50
The value called pIC50 is obtained by taking minus log10 of the concentration in mol/L.

Exercise: Report pIC50, nothing else, for this molecule: CC(C)C[C@H](NC(=O)Cn1nc(-c2cccc(OCCN3CCOCC3)c2)cc1-c1ccccc1)B(O)O.Cl [Compound 30, hydrochloride]
Key: 5.52

###

Assay: Pharmacokinetic test in rats (IV and PO)
Type: in vivo, male SD rats
Details: male, SD, rat; IV 1 mg/kg, single, plasma
Method: This experiment includes the PO group and IV group, with three animals in each group. […] The plasma drug concentration was analyzed by using LC-MS/MS method. […] The pharmacokinetic parameters were calculated with WinNonlin 8.1 software. The following pharmacokinetic parameters were calculated: CL (clearance), Vd (apparent volume of distribution), T1/2 (elimination half-life time), Cmax (peak concentration), Tmax (peak time), AUC (area under the blood concentration-time curve), and F % (bioavailability).
Value Type: Tmax (min)
Give the value in min but do not write min after it.

Exercise: Report Tmax, nothing else, for this molecule: CC(C)C[C@H](NC(=O)Cn1nc(-c2cccc(OCCN3CCN(c4ccccc4)CC3)c2)cc1-c1ccccc1)B(O)O.Cl
Key: 4.98

###

Experiment: Pharmacokinetic test in rats (IV and PO)
Format: in vivo, male SD rats
Conditions: male, SD, rat; IV 1 mg/kg, single, plasma
Description: This experiment includes the PO group and IV group, with three animals in each group. […] The plasma drug concentration was analyzed by using LC-MS/MS method. […] The pharmacokinetic parameters were calculated with WinNonlin 8.1 software. The following pharmacokinetic parameters were calculated: CL (clearance), Vd (apparent volume of distribution), T1/2 (elimination half-life time), Cmax (peak concentration), Tmax (peak time), AUC (area under the blood concentration-time curve), and F % (bioavailability).
Value Type: Vd (L/kg)
Give the value in L/kg but do not write L/kg after it.

Exercise: Report Vd, nothing else, for this compound: CC(C)C[C@H](NC(=O)Cn1nc(-c2cccc(OCCN3CCN(c4ccccc4)CC3)c2)cc1-c1ccccc1)B(O)O.Cl
Key: 13.9

###

Assay: Pharmacokinetic test in rats (IV and PO)
Assay type: in vivo, male SD rats
Conditions: male, SD, rat; IV 1 mg/kg, single, plasma
Value Type: Cmax (ng/mL)
Give the value in ng/mL but do not write ng/mL after it.

Exercise: Report Cmax, nothing else, for this molecule: CC(C)C[C@H](NC(=O)Cn1nc(-c2cccc(OCCN3CCN(c4ccccc4)CC3)c2)cc1-c1ccccc1)B(O)O.Cl [Compound 39]
Key: 671

Where these numbers come from: patent US12473305B2
